Target: kappa opioid receptor (KOR) (Homo sapiens, UniProt P41145)
Sequence (P41145 whole entry): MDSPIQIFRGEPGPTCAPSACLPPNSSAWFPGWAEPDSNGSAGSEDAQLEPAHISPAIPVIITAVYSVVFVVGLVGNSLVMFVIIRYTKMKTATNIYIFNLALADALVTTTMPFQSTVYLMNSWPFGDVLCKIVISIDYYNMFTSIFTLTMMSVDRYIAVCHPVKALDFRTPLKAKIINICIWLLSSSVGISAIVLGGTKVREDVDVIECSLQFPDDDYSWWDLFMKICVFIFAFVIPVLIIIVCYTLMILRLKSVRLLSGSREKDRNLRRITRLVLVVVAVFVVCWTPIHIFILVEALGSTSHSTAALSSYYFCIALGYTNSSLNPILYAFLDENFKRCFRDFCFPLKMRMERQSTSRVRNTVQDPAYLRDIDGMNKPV
Assay: OPRKappa 1 Tango B-Arrestin Assay, antagonist mode (Tango OPRK1-bla U2OS cells, U50488 EC80 challenge)
Conditions: antagonist mode, Tango OPRK1-bla U2OS cells, 6 nM U50488 challenge
pIC50: −log10 of the molar value.
measurement_label: pIC50

Here is how some compounds turned out for pIC50.
{"columns": ["compound", "assayed_target", "pIC50"],
 "data": [
  ["CCc1cc(-c2cc(C)nn2C)c2nc(N3CCC(N[C@H]4CCOC4)CC3)c(-c3ccn(C)n3)c(C)c2c1", "kappa opioid receptor (KOR) (Homo sapiens, UniProt P41145)", "> 9.00"],
  ["CCc1cc(-c2ccnn2C)c2nc(N3CCN(CC4CCOCC4)C[C@H]3C)c(-c3ccn(C)n3)c(C)c2c1", "kappa opioid receptor (KOR) (Homo sapiens, UniProt P41145)", "8.00 to 9.00"],
  ["CCc1cc(F)c2nc(N3CCN(C(=O)[C@H](C)N(CC)CC)C[C@H]3C)c(-c3cc(C)no3)c(C)c2c1", "kappa opioid receptor (KOR) (Homo sapiens, UniProt P41145)", "7.00 to 8.00"],
  ["CCc1cc(F)c2nc(N3CCN(C(=O)[C@H](Cc4ccccc4)N(C)C)C[C@H]3C)c(-c3nc(C)no3)c(C)c2c1", "kappa opioid receptor (KOR) (Homo sapiens, UniProt P41145)", "≤ 7.00"]
]}

The measured pIC50 associated with CCc1cc(F)c2nc(N3CCN(C(=O)CN4CCCC4)C[C@H]3C)c(-c3nc(C)no3)c(C)c2c1 reads 8.00 to 9.00

The measured pIC50 associated with CCc1cc(F)c2nc(N3CCN(C(=O)CCN4CCCC4)C[C@H]3C)c(-c3nc(C)no3)c(C)c2c1 reads 8.00 to 9.00

The measured pIC50 associated with CCc1cc(F)c2nc(N3CCC(N[C@@H]4CCOC[C@@H]4F)CC3)c(-c3cc(C)n(C)n3)c(C)c2c1 reads 8.00 to 9.00

The measured pIC50 associated with CCc1cc(F)c2nc(N3CCN(C(=O)[C@H](CO)N(C)C)C[C@H]3C)c(-c3nc(C)no3)c(C)c2c1 reads 8.00 to 9.00

The measured pIC50 associated with CCc1cc(F)c2nc(N3CCN(C(=O)CN(C)C)C[C@H]3C)c(-c3nc(C)no3)c(C)c2c1 reads 7.00 to 8.00

The measured pIC50 associated with CCc1cc(F)c2nc(N3CCN(C(=O)[C@H](C)N4CCCC4)C[C@H]3C)c(-c3nc(C)no3)c(C)c2c1 [Compound 201] reads 8.00 to 9.00
